# system-tested: Retinoic acid receptor RXR-beta (Homo sapiens) (UniProt P28702)
# Sequence (P28702 whole entry): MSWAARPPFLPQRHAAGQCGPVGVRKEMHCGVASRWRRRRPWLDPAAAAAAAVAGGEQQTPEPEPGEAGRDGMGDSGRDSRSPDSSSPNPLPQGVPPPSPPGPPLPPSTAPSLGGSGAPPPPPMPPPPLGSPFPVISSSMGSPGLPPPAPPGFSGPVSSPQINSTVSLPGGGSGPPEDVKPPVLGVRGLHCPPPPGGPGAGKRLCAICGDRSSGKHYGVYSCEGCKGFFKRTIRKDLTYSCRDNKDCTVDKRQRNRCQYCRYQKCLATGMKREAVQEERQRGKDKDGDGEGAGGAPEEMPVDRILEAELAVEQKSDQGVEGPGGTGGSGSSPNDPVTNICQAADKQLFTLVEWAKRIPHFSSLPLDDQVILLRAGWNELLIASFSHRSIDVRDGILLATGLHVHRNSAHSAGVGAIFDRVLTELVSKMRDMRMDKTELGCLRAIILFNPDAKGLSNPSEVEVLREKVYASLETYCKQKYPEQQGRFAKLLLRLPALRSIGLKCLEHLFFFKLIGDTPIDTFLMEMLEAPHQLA
# assay-name: Agonist activity for Retinoid X receptor beta as photons in presence and absence of ligand
# Format: functional
# Design: unit not given here
measurement-type: Activity
Could you respond with only the numeric value?

Observe how each entry below is paired with its result.
line-notation | assay-value
C=C(/C=C/C1=C(C)CCCC1(C)C)C/C=C/C(C)=C\C(=O)O | 2.1
CC1=C(/C=C/C(C)=C\C=C\C(C)=C\C(=O)O)C(C)(C)CCC1 | 14.5
C=C(/C=C/c1ccccc1)C/C=C/C(C)=C\C(=O)O | 13.5
CC1=C(/C=C/C(C)=C/C=C(\C#N)C(C)=C(C(=O)O)C(=O)O)C(C)(C)CCC1 | 3

Reported Activity for COC(=O)\C=C(C)/C(C#N)=C/C=C(C)/C=C/C1=C(C)CCCC1(C)C : what is it?
1.6
